# SYSTEM TESTED: T1, human IL-23R (human, UniProt Q5VWK5 24-629)
# T1 sequence (looked up): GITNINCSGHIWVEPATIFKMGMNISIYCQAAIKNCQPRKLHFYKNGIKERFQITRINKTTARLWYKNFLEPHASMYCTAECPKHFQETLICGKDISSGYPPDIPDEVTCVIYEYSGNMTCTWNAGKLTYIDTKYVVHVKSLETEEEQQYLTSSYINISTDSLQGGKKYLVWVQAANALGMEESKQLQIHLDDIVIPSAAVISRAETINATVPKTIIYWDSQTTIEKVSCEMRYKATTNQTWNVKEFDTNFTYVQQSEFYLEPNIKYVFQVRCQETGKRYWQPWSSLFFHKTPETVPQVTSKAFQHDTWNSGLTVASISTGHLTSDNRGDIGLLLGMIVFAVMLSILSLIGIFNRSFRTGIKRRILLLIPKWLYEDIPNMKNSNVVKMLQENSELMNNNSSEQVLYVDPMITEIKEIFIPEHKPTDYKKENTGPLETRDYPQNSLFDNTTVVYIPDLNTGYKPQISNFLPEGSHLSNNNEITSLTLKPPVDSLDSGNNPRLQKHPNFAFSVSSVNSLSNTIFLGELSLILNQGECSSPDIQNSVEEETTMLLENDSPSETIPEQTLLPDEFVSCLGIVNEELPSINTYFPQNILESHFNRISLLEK
# ASSAY TEXT: cell-based or functional assay
Bridge positions count the residues as written; N and C are the ends. Square brackets hold non-standard residues; d marks the D form. Trp(5-CN) = N#Cc1ccc2[nH]cc(C[C@H](N)C(=O)O)c2c1; 2Nal = N[C@@H](Cc1ccc2ccccc2c1)C(=O)O; AEF = NCCOc1ccc(C[C@H](N)C(=O)O)cc1; 3Pal = N[C@@H](Cc1cccnc1)C(=O)O; Pen = CC(C)(S)[C@H](N)C(=O)O; Trp(5-Ca) = not defined here; Thp = NC1(C(=O)O)CCOCC1; Sar = CNCC(=O)O
Assignment: determine reported pStat3 HTRF IC50 for the given binders.

## Input Provide pStat3 HTRF IC50 value for the following binder: Ac-[Pen]NT[Trp(5-Ph)]K(Ac)[Pen][AEF][2Nal][Thp]EN[3Pal][Sar]-NH2 (disulfide 1-6 (inferred)) [Peptide No. 150]
## Output > 10 nM

## Input Provide pStat3 HTRF IC50 value for the following binder: Ac-[Pen]NT[Trp(5-CN)]K(Ac)[Pen][AEF][2Nal][Thp]EN[3Pal][Sar]-NH2 (disulfide 1-6 (inferred)) [Peptide No. 154]
## Output > 10 nM

## Input Provide pStat3 HTRF IC50 value for the following binder: Ac-[Pen]NT[Trp(7-(3-carboxamidophenyl))]K(Ac)[Pen][AEF][2Nal][Thp]EN[3Pal][Sar]-NH2 (disulfide 1-6 (inferred)) [Peptide No. 142]
## Output 90 pM

## Input Provide pStat3 HTRF IC50 value for the following binder: Ac-[Pen]NT[Trp(5-Ca)]K(Ac)[Pen][AEF][2Nal][Thp]EN[3Pal][Sar]-NH2 (disulfide 1-6; reading uncertain; also: printed as Ac-[Pen]-N-T-[W(5-Ca)]-[Lys(Ac)]-[Pen]-Phe[4-(2-aminoethoxy)]-[2-Nal]-[THP]-E-N-[3Pal]-[Sarc]-NH2; Pen-Pen disulfide) [Peptide No. 160]
## Output > 10 nM
